Recorded values, source PubChem BioAssay (NCI).

Test system: CCRF-CEM leukemia
Test: NCI tumour cell line growth inhibition, 48 h
readout-label: TGI

                                    compound  readout_label  test_value
 0  COc1ccc(/C=C/C(=O)c2ccc(NC(=O)CSc3nnc(-c4cc(OC)c(OC)c(OC)c4)o3)cc2)cc1            TGI     4.56 µM
 1  CC(=O)/C=C/c1ccc(N(C)Cc2ccc(C(C)(C)C)cc2)cc1            TGI      903 µM
 2  CC1CC(=O)NC2CC1C2(C)C (stereo unspecified)            TGI    > 100 µM
 3  COc1ccc(C2C3=C(CCCC3=O)N(c3ccccc3)C3=C2C(=O)CCC3)cc1            TGI    > 100 µM
 4  CCC1CCN=C(Cn2cc(C)c(=O)[nH]c2=O)N1 (stereo unspecified)            TGI    > 100 µM
 5  COc1ccc(N2C(=O)CC(c3c[nH]c4ccccc34)C2=O)cc1 (stereo unspecified)            TGI    > 100 µM
 6       OCCCNC(=S)Nc1ccc(-c2nc3ccccc3s2)cc1            TGI    > 100 µM
 7  Cn1c(-c2ccccc2)c/c(=N\NS(C)(=O)=O)c2cc(S(=O)(=O)O)ccc21            TGI    > 100 µM
 8              C=CCn1c(=S)sc2c(=O)[nH]cnc21            TGI    > 100 µM
 9       C/C(=C\c1ccc2c(c1)OCO2)[N+](=O)[O-]            TGI    > 100 µM
10             Cc1c(C)c(C)c(CSC(=N)N)c(C)c1C            TGI     35.4 µM
